Molecular target: Bile acid receptor (Homo sapiens, UniProt Q96RI1)
Sequence (Q96RI1 whole entry): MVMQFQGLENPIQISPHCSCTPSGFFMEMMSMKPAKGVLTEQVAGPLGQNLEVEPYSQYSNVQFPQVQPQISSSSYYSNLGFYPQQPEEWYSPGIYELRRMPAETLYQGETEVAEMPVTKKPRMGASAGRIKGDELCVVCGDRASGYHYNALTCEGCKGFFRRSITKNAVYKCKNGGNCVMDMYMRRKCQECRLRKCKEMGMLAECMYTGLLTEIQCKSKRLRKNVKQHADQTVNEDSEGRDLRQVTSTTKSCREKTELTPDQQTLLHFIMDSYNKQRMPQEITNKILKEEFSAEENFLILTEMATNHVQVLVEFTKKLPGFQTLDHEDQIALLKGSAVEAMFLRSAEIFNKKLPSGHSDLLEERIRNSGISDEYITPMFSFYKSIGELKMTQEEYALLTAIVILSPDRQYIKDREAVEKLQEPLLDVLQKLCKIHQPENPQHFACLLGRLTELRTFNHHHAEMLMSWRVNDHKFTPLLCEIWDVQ
Assay: Antagonist activity at FXR (unknown origin) expressed in HEK293T cells cotransfected with pCMV-Script-hFXR/pGL4.11-hSHP-Luciferase incubated for 24 hrs in presence of GW4064 by Steady-glo luciferase assay
Param label: returns 1 (yes) when IC50 < 2 µM, returns 0 (no) otherwise, including exact equality.

Here are 4 molecules together with their reported answers.
CCCC(=O)O[C@@H]1CC[C@]2(C)[C@H]3CC[C@@H]4[C@H]5[C@H](C(C)C)CC[C@]5(C(=O)NCCS(=O)(=O)O)CC[C@@]4(C)[C@]3(C)CC[C@H]2C1(C)C = 0 (no)
CCCC(=O)O[C@@H]1CC[C@]2(C)[C@H]3CC[C@@H]4[C@H]5[C@H]([C@@H](C)C(=O)O)CC[C@]5(C(=O)NCC(=O)O)CC[C@@]4(C)[C@]3(C)CC[C@H]2C1(C)C = 0 (no)
CCCC(=O)O[C@@H]1CC[C@]2(C)[C@H]3CC[C@@H]4[C@H]5[C@H](C(C)C)CC[C@]5(NC(=O)OCC(=O)O)CC[C@@]4(C)[C@]3(C)CC[C@H]2C1(C)C = 1 (yes)
CCNC(=O)O[C@@H]1CC[C@]2(C)[C@H]3CC[C@@H]4[C@H]5[C@H](C(C)C)CC[C@]5(C(=O)NCC(=O)O)CC[C@@]4(C)[C@]3(C)CC[C@H]2C1(C)C = 0 (no)

Take the molecule `CCCC(=O)O[C@@H]1CC[C@]2(C)[C@H]3CC[C@@H]4[C@H]5[C@H](C(C)C)CC[C@]5(C(=O)NCC(=O)O)CC[C@@]4(C)[C@]3(C)CC[C@H]2C1(C)C` and say whether its IC50 is less than 2 µM.
0 (no)

Take the molecule `CC(C)[C@@H]1CC[C@]2(C(=O)NCC(=O)O)CC[C@]3(C)[C@H](CC[C@@H]4[C@@]5(C)CC[C@@H](OC(=O)C6CCCC6)C(C)(C)[C@@H]5CC[C@]43C)[C@@H]12` and say whether its IC50 is less than 2 µM.
1 (yes)

Take the molecule `CCCC(=O)O[C@@H]1CC[C@]2(C)[C@H]3CC[C@@H]4[C@H]5[C@H]([C@@H](C)CO)CC[C@]5(C(=O)NCC(=O)O)CC[C@@]4(C)[C@]3(C)CC[C@H]2C1(C)C` and say whether its IC50 is less than 2 µM.
0 (no)

Take the molecule `CCCC(=O)O[C@@H]1CC[C@]2(C)[C@H]3CC[C@@H]4[C@H]5[C@H](C(C)C)CC[C@]5(C(=O)NCCC(=O)O)CC[C@@]4(C)[C@]3(C)CC[C@H]2C1(C)C` and say whether its IC50 is less than 2 µM.
0 (no)

Take the molecule `CC(C)[C@@H]1CC[C@]2(C(=O)NCC(=O)O)CC[C@]3(C)[C@H](CC[C@@H]4[C@@]5(C)CC[C@@H](OC(=O)C6CCC6)C(C)(C)[C@@H]5CC[C@]43C)[C@@H]12` and say whether its IC50 is less than 2 µM.
0 (no)

Take the molecule `CCCC(=O)O[C@@H]1CC[C@]2(C)[C@H]3CC[C@@H]4[C@H]5[C@H](C(C)C)CC[C@]5(NC(=O)NCC(=O)O)CC[C@@]4(C)[C@]3(C)CC[C@H]2C1(C)C` and say whether its IC50 is less than 2 µM.
1 (yes)

====

IC50 at 24 h values, listed per item
Assay: Cytotoxicity against HEK293T cells cotransfected with pCMV-Script-hFXR/pGL4.11-hSHP-Luciferase incubated for 24 hrs in presence of GW4064 by celltiter-blue cell viability assay
Format: toxicity, cell-based, HEK-293T
Details: human

Recorded IC50 at 24 h, per entry:
CCCC(=O)O[C@@H]1CC[C@]2(C)[C@H]3CC[C@@H]4[C@H]5[C@H](C(=O)CO)CC[C@]5(C(=O)NCC(=O)O)CC[C@@]4(C)[C@]3(C)CC[C@H]2C1(C)C = 25.3 µM
CCCC(=O)O[C@H]1CC[C@]2(C)[C@H]3CC[C@@H]4[C@H]5[C@H](C(C)C)CC[C@]5(C(=O)NCC(=O)O)CC[C@@]4(C)[C@]3(C)CC[C@H]2C1(C)C = > 100 µM
CCCC(=O)O[C@@H]1CC[C@]2(C)[C@H]3CC[C@@H]4[C@H]5[C@H](C(C)=O)CC[C@]5(C(=O)NCC(=O)O)CC[C@@]4(C)[C@]3(C)CC[C@H]2C1(C)C = 44.3 µM
CC(C)[C@@H]1CC[C@]2(C(=O)NCC(=O)O)CC[C@]3(C)[C@H](CC[C@@H]4[C@@]5(C)CC[C@@H](OC(=O)c6ccco6)C(C)(C)[C@@H]5CC[C@]43C)[C@@H]12 = > 100 µM
CC(C)C(=O)O[C@@H]1CC[C@]2(C)[C@H]3CC[C@@H]4[C@H]5[C@H](C(C)C)CC[C@]5(C(=O)NCC(=O)O)CC[C@@]4(C)[C@]3(C)CC[C@H]2C1(C)C = > 100 µM

Recorded result, `CC(C)[C@@H]1CC[C@]2(C(=O)NCC(=O)O)CC[C@]3(C)[C@H](CC[C@@H]4[C@@]5(C)CC[C@@H](OC(=O)c6ccc(F)cc6)C(C)(C)[C@@H]5CC[C@]43C)[C@@H]12` , IC50 at 24 h: 55.7 µM

Recorded result, `CCCC(=O)O[C@@H]1CC[C@]2(C)[C@H]3CC[C@@H]4[C@H]5[C@H](C(C)C)CC[C@]5(C(=O)NCC(=O)NS(C)(=O)=O)CC[C@@]4(C)[C@]3(C)CC[C@H]2C1(C)C` , IC50 at 24 h: > 100 µM

Recorded result, `CC(C)[C@@H]1CC[C@]2(C(=O)NCC(=O)O)CC[C@]3(C)[C@H](CC[C@@H]4[C@@]5(C)CC[C@@H](OC(=O)C6CC6)C(C)(C)[C@@H]5CC[C@]43C)[C@@H]12` , IC50 at 24 h: > 100 µM

Recorded result, `CCCC(=O)O[C@@H]1CC[C@]2(C)[C@H]3CC[C@@H]4[C@H]5[C@H](C(C)C)CC[C@]5(NC(=O)NCC(=O)O)CC[C@@]4(C)[C@]3(C)CC[C@H]2C1(C)C` , IC50 at 24 h: 1.3 µM

Recorded result, `CC(C)[C@@H]1CC[C@]2(C(=O)NCC(=O)O)CC[C@]3(C)[C@H](CC[C@@H]4[C@@]5(C)CC[C@@H](O)C(C)(C)[C@@H]5CC[C@]43C)[C@@H]12` , IC50 at 24 h: > 100 µM

Recorded result, `CCCCC(=O)O[C@@H]1CC[C@]2(C)[C@H]3CC[C@@H]4[C@H]5[C@H](C(C)C)CC[C@]5(C(=O)NCC(=O)O)CC[C@@]4(C)[C@]3(C)CC[C@H]2C1(C)C` , IC50 at 24 h: > 100 µM

====

Assay: Cytotoxicity against HEK293T cells cotransfected with pCMV-Script-hFXR/pGL4.11-hSHP-Luciferase incubated for 24 hrs in presence of GW4064 by celltiter-blue cell viability assay
Assay type: toxicity, cell-based, HEK-293T
Settings: human
recorded_metric: IC50 at 24 h

Recorded IC50 at 24 h, per entry:
CCCS(=O)(=O)O[C@@H]1CC[C@]2(C)[C@H]3CC[C@@H]4[C@H]5[C@H](C(C)C)CC[C@]5(C(=O)NCC(=O)O)CC[C@@]4(C)[C@]3(C)CC[C@H]2C1(C)C = > 100 µM
CCNS(=O)(=O)O[C@@H]1CC[C@]2(C)[C@H]3CC[C@@H]4[C@H]5[C@H](C(C)C)CC[C@]5(C(=O)NCC(=O)O)CC[C@@]4(C)[C@]3(C)CC[C@H]2C1(C)C = > 100 µM
CCCC(=O)O[C@@H]1CC[C@]2(C)[C@H]3CC[C@@H]4[C@H]5[C@H](C(C)C)CC[C@]5(C(=O)N[C@@H](C)C(=O)O)CC[C@@]4(C)[C@]3(C)CC[C@H]2C1(C)C = 37.7 µM

Recorded result, `CCCC(=O)O[C@@H]1CC[C@]2(C)[C@H]3CC[C@@H]4[C@H]5[C@H](C(C)C)CC[C@]5(C(=O)OCC(=O)O)CC[C@@]4(C)[C@]3(C)CC[C@H]2C1(C)C` , IC50 at 24 h: 29.2 µM

Recorded result, `CCCC(=O)O[C@@H]1CC[C@]2(C)[C@H]3CC[C@@H]4[C@H]5[C@H]([C@@H](C)CO)CC[C@]5(C(=O)NCC(=O)O)CC[C@@]4(C)[C@]3(C)CC[C@H]2C1(C)C` , IC50 at 24 h: > 100 µM

Recorded result, `CCCC(=O)O[C@@H]1CC[C@]2(C)[C@H]3CC[C@@H]4[C@H]5[C@H](C(C)C)CC[C@]5(C(=O)NCC(=O)O)CC[C@@]4(C)[C@]3(C)CC[C@H]2C1(C)C` , IC50 at 24 h: > 100 µM

Recorded result, `CC(C)[C@@H]1CC[C@]2(C(=O)O)CC[C@@H]3[C@H](CC[C@H]4[C@@]3(C)CC[C@H]3C(C)(C)[C@H](O)CC[C@]43C)[C@@H]12` , IC50 at 24 h: 61.7 µM

Recorded result, `CC(C)[C@@H]1CC[C@]2(C(=O)NCC(=O)O)CC[C@]3(C)[C@H](CC[C@@H]4[C@@]5(C)CC[C@@H](OC(=O)C6CCCC6)C(C)(C)[C@@H]5CC[C@]43C)[C@@H]12` , IC50 at 24 h: 2 µM
